- target.or.test.system: Recombinant human cathepsin A (Homo sapiens, UniProt P10619)
- Construct: Recombinant human cathepsin A (residues 29-480, with a C-terminal 10-His tag); 10-His (C)
- assay.overview: Cathepsin A inhibitory activity
- condition.notes: activated recombinant human cathepsin A 833 ng/ml, Bodipy FL-labeled bradykinin substrate 2 μM, pH 5.5, room temperature
- Text: a) Cathepsin A Inhibitory Activity Recombinant human cathepsin A (residues 29-480, with a C-terminal 10-His tag; R&D Systems, #1049-SE) was proteolytically activated with recombinant human cathepsin L (R&D Systems, #952-CY). […] Uncleaved substrate and product were then separated by a microfluidic capillary electrophoresis on a LabChip® 3000 Drug Discovery System (12-Sipper-Chip; Caliper Life Sciences) and quantified by determination of the respective peak areas. […]
readout.name: IC50 (nM)

Entry O=C(O)C[C@H](NC(=O)c1csc(-c2ccc(Cl)cc2)n1)c1cccc(Cl)c1Cl , IC50 reported as 686

a: O=C(O)C[C@@H](Cc1ccccc1)NC(=O)c1nc(-c2ccccc2)cs1
b: O=C(O)C[C@H](NC(=O)c1csc(-c2cccc(Cl)c2Cl)n1)c1cccc(Cl)c1
c: Cc1ccccc1-c1nc(C(=O)NC(CC(=O)O)Cc2ccccc2)cs1 (stereo not shown)
Sequence the entries by IC50, beginning with the highest number. Answer by listing the labels in the requested order.
c, a, b

----------
- target.or.test.system: Recombinant human cathepsin A (Homo sapiens)
- Construct: Recombinant human cathepsin A (residues 29-480, with a C-terminal 10-His tag); 10-His (C)
- assay.overview: Cathepsin A inhibitory activity
- condition.notes: activated recombinant human cathepsin A 833 ng/ml, Bodipy FL-labeled bradykinin substrate 2 μM, pH 5.5, room temperature
readout.name: IC50 (nM)

Entry Cc1cc(C(F)(F)F)n(-c2nc(C(=O)N[C@@H](CC(=O)O)c3ccccc3C)cs2)n1 , IC50 reported as 3590

Entry COc1cccc([C@H](CC(=O)O)NC(=O)c2csc(-c3ccc(C(F)(F)F)cc3)n2)c1OC , IC50 reported as 6340

Entry O=C(O)C[C@H](NC(=O)c1csc(-c2ccccc2)n1)c1cccc(Cl)c1Cl , IC50 reported as 176

Entry Cc1ccccc1-c1nc(C(=O)N[C@@H](CC(=O)O)c2ccccc2Cl)cs1 , IC50 reported as 149

Entry Cc1cccc([C@H](CC(=O)O)NC(=O)c2nc(-c3ccccc3)cs2)c1 , IC50 reported as 315

I: O=C(O)C[C@H](NC(=O)c1csc(-c2ccc(C(F)(F)F)cc2)n1)c1ccc(Cl)cc1Cl
II: Cc1ccccc1[C@H](CC(=O)O)NC(=O)c1csc(-c2ccc(C(F)(F)F)cc2)n1
III: Cc1ccccc1-c1nc(C(=O)N[C@@H](CC(=O)O)c2cccc(Cl)c2)cs1
Order the records, beginning with the lowest IC50 and ending with the highest. Answer by listing the labels in the requested order.
III, II, I

----------
- target.or.test.system: Recombinant human cathepsin A (Homo sapiens, UniProt P10619)
- Construct: Recombinant human cathepsin A (residues 29-480, with a C-terminal 10-His tag); 10-His (C)
- assay.overview: Cathepsin A inhibitory activity
- condition.notes: activated recombinant human cathepsin A 833 ng/ml, Bodipy FL-labeled bradykinin substrate 2 μM, pH 5.5, room temperature
readout.name: IC50 (µM)

Use the examples below as a reference point.
Entry O=C(O)C[C@H](NC(=O)c1csc(-c2cccc(Cl)c2Cl)n1)c1ccccc1C(F)(F)F [Example 66] , IC50 reported as 0.619

Entry O=C(O)C[C@H](NC(=O)c1csc(-c2ccccc2Cl)n1)c1ccccc1 [Example 83] , IC50 reported as 0.186

Entry O=C(O)CC(Cc1ccccc1)NC(=O)c1csc(-c2cccc(Cl)c2Cl)n1 (centres unmarked) [Example 117] , IC50 reported as 2.75

I: O=C(O)CC(Cc1ccccc1)NC(=O)c1csc(-c2cccc(Cl)c2)n1 (centres unmarked) [Example 125]
II: O=C(O)C[C@H](NC(=O)c1csc(-c2ccccc2Cl)n1)c1ccc(F)cc1 [Example 80]
III: O=C(O)C[C@H](NC(=O)c1csc(-c2ccc(Cl)cc2)n1)c1ccc(Cl)cc1Cl [Example 102]
IV: COc1cccc([C@H](CC(=O)O)NC(=O)c2csc(-c3ccc(Cl)cc3)n2)c1OC [Example 101]
Sequence the entries by IC50, beginning with the highest number. Answer by listing the labels in the requested order.
I, III, IV, II

----------
- target.or.test.system: Recombinant human cathepsin A (Homo sapiens, UniProt P10619)
- Construct: Recombinant human cathepsin A (residues 29-480, with a C-terminal 10-His tag); 10-His (C)
- assay.overview: Cathepsin A inhibitory activity
- condition.notes: activated recombinant human cathepsin A 833 ng/ml, Bodipy FL-labeled bradykinin substrate 2 μM, pH 5.5, room temperature
pIC50: −log10 of the molar value.
readout.name: pIC50

Entry Cc1ccc(-c2nc(C(=O)N[C@@H](CC(=O)O)c3ccccc3C)cs2)cc1 , pIC50 reported as 6.73

Entry O=C(O)CC(NC(=O)c1csc(-c2cccc(Cl)c2)n1)C1CCCCC1 (stereo not drawn) , pIC50 reported as 5.47

Entry O=C(O)C[C@H](NC(=O)c1nc(-c2ccccc2)cs1)c1ccc(Cl)cc1 , pIC50 reported as 6.20

Entry COc1cccc([C@H](CC(=O)O)NC(=O)c2csc(-c3ccccc3Cl)n2)c1OC , pIC50 reported as 6.95

Entry Cc1ccccc1[C@H](CC(=O)O)NC(=O)c1csc(-c2cnccn2)n1 , pIC50 reported as 5.58

Entry O=C(N[C@@H](Cc1ccc(Cl)cc1)C(=O)O)c1csc(-c2ccccc2)n1 , pIC50 reported as 4.66

Entry O=C(O)CC(NC(=O)c1csc(-c2ccccc2Cl)n1)C1CCCCC1 (stereo not drawn) , pIC50 reported as 6.17

Entry Cc1ccccc1[C@H](CC(=O)O)NC(=O)c1csc(-c2cccc(Cl)c2Cl)n1 , pIC50 reported as 6.90

1: O=C(O)C[C@H](NC(=O)c1csc(-c2ccccc2Cl)n1)c1ccccc1F
2: Cc1ccccc1-c1nc(C(=O)N[C@@H](CC(=O)O)c2ccccc2F)cs1
# returns the entry with the larger pIC50; inputs 1 and 2 Lab log: write the label of the selected item as the result.
2
(2: 6.50, 1: 6.18)

I: Cc1ccccc1[C@H](CC(=O)O)NC(=O)c1nc(-c2ccccc2)cs1
II: O=C(O)CC(Cc1ccccc1)NC(=O)c1csc(-c2ccc(C(F)(F)F)cc2)n1 (stereo not drawn)
III: Cc1ccccc1[C@H](CC(=O)O)NC(=O)c1csc(-c2cccc(Cl)c2)n1
IV: Cc1ccccc1-c1nc(C(=O)N[C@@H](CC(=O)O)c2cccc(F)c2)cs1
V: O=C(NCC(C(=O)O)c1ccccc1)c1csc(-c2cccc(Cl)c2Cl)n1 (stereo not drawn)
Order the records, beginning with the lowest pIC50 and ending with the highest. Answer by listing the labels in the requested order.
II, V, III, IV, I
(II: 4.65, V: 5.11, III: 6.18, IV: 6.55, I: 7.05)

----------
- target.or.test.system: Recombinant human cathepsin A (Homo sapiens, UniProt P10619)
- Construct: Recombinant human cathepsin A (residues 29-480, with a C-terminal 10-His tag); 10-His (C)
- Sequence (P10619 29-326 limits assumed): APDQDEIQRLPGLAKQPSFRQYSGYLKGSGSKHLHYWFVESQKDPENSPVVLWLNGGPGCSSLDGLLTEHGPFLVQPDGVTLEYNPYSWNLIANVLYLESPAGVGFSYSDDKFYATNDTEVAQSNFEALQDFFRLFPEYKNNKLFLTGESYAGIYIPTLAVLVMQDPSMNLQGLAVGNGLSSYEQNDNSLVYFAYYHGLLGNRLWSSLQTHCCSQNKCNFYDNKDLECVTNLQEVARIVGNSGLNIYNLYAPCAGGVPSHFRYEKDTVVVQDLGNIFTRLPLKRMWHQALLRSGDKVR
- Sequence (P10619 327-480 limits assumed): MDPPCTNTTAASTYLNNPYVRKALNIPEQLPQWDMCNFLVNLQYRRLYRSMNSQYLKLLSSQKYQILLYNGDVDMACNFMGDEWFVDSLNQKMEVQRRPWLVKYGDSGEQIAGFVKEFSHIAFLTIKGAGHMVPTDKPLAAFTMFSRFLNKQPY
- assay.overview: Cathepsin A inhibitory activity
- condition.notes: activated recombinant human cathepsin A 833 ng/ml, Bodipy FL-labeled bradykinin substrate 2 μM, pH 5.5, room temperature
readout.name: IC50 (µM)

Use the examples below as a reference point.
Entry O=C(N[C@@H](Cc1ccc(Cl)cc1)C(=O)O)c1csc(-c2ccc(C(F)(F)F)cc2)n1 , IC50 reported as 3.7

Entry COc1cccc([C@H](CC(=O)O)NC(=O)c2csc(-c3ccccc3F)n2)c1OC , IC50 reported as 0.875

Entry O=C(O)C[C@H](NC(=O)c1csc(-c2ccccc2Cl)n1)c1ccccc1C(F)(F)F , IC50 reported as 0.712

Entry O=C(O)C[C@H](NC(=O)c1csc(-c2cccc(Cl)c2)n1)c1cccc(Cl)c1 , IC50 reported as 2.98

Entry COc1ccc([C@H](CC(=O)O)NC(=O)c2csc(-c3ccc(C(F)(F)F)cc3)n2)cc1 , IC50 reported as 14.8

Entry O=C(NCC(C(=O)O)c1ccccc1)c1csc(-c2ccccc2F)n1 (stereo not drawn) , IC50 reported as 12.6

I: O=C(O)C[C@H](NC(=O)c1csc(-c2cccc(Cl)c2)n1)c1ccccc1F
II: O=C(O)C[C@H](NC(=O)c1csc(-c2ccccc2)n1)c1cccc(Cl)c1
# returns the entry with the larger IC50; inputs I and II Lab log: write the label of the selected item as the result.
I
